// values below are reported shrunken log2 fold change
# Tested on: Escherichia coli TOP10
# Run description: shrunken log2 fold change of peptide-encoding DNA abundance (4.5 h post-induction vs induction); higher = less antimicrobial activity (less host growth inhibition)
# Condition context: time post-induction: 4.5 h; library: site-saturation at positions 5, 18, 19, 20
Measure name: shrunken log2 fold change

> print(dat)
             sequence.code               measure.name  measured
1  RRIRSRPPRLPRPRPRPWEMPRP  shrunken log2 fold change  -0.00146
2  RRIRYRPPRLPRPRPRPRLCPRP  shrunken log2 fold change   -0.0154
3  RRIRTRPPRLPRPRPRPSFYPRP  shrunken log2 fold change    -0.343

----------
# System: Escherichia coli TOP10
# Run description: shrunken log2 fold change of peptide-encoding DNA abundance (4.5 h post-induction vs induction); higher = less antimicrobial activity (less host growth inhibition)
# Condition context: time post-induction: 4.5 h; library: site-saturation at positions 5, 18, 19, 20
Measure name: shrunken log2 fold change

> print(dat)
             sequence.code               measure.name  measured
1  RRIRGRPPRLPRPRPRPFVQPRP  shrunken log2 fold change    0.0324
2  RRIRDRPPRLPRPRPRPPTTPRP  shrunken log2 fold change     0.151
3  RRIRNRPPRLPRPRPRPLQWPRP  shrunken log2 fold change    0.0683
4  RRIRRRPPRLPRPRPRPDMWPRP  shrunken log2 fold change     0.103
5  RRIRERPPRLPRPRPRPNRIPRP  shrunken log2 fold change   -0.0288
6  RRIRLRPPRLPRPRPRPIPMPRP  shrunken log2 fold change    0.0494
7  RRIRYRPPRLPRPRPRPKTFPRP  shrunken log2 fold change    -0.251
8  RRIRNRPPRLPRPRPRPGIIPRP  shrunken log2 fold change  -0.00401
9  RRIRDRPPRLPRPRPRPSLAPRP  shrunken log2 fold change     0.474

----------
// values below are reported shrunken log2 fold change
# Tested on: Escherichia coli TOP10;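 note: peptides expressed intracellularly from a pBAD plasmid library in pooled LB shake-flask culture, induced with 0.3% L-arabinose, DNA abundance read by NGS, three biological replicates, DESeq2 with apeglm shrinkage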
# Run description: shrunken log2 fold change of peptide-encoding DNA abundance (4.5 h post-induction vs induction); higher = less antimicrobial activity (less host growth inhibition)
# Condition context: time post-induction: 4.5 h; library: site-saturation at positions 5, 18, 19, 20
Measure name: shrunken log2 fold change

> print(dat)
              sequence.code               measure.name  measured
 1  RRIRIRPPRLPRPRPRPDPMPRP  shrunken log2 fold change    -0.205
 2  RRIRDRPPRLPRPRPRPHSQPRP  shrunken log2 fold change   -0.0254
 3  RRIRGRPPRLPRPRPRPCHSPRP  shrunken log2 fold change    0.0222
 4  RRIRGRPPRLPRPRPRPVDIPRP  shrunken log2 fold change     0.183
 5  RRIRMRPPRLPRPRPRPTQSPRP  shrunken log2 fold change      1.03
 6  RRIRERPPRLPRPRPRPKNAPRP  shrunken log2 fold change    -0.352
 7  RRIRIRPPRLPRPRPRPLPSPRP  shrunken log2 fold change   -0.0327
 8  RRIRNRPPRLPRPRPRPRQTPRP  shrunken log2 fold change     0.112
 9  RRIRTRPPRLPRPRPRPDATPRP  shrunken log2 fold change     0.823
10  RRIRNRPPRLPRPRPRPLGQPRP  shrunken log2 fold change    0.0394
11  RRIRQRPPRLPRPRPRPYCWPRP  shrunken log2 fold change    -0.554
12  RRIRHRPPRLPRPRPRPQTPPRP  shrunken log2 fold change     0.374
13  RRIRVRPPRLPRPRPRPLDLPRP  shrunken log2 fold change   -0.0307
14  RRIRSRPPRLPRPRPRPWCSPRP  shrunken log2 fold change    -0.296
15  RRIRWRPPRLPRPRPRPFGGPRP  shrunken log2 fold change    0.0764
16  RRIRWRPPRLPRPRPRPGHNPRP  shrunken log2 fold change      0.31
17  RRIRMRPPRLPRPRPRPTWVPRP  shrunken log2 fold change     0.496
18  RRIRARPPRLPRPRPRPAWPPRP  shrunken log2 fold change     0.582
19  RRIRPRPPRLPRPRPRPYFHPRP  shrunken log2 fold change    -0.522
20  RRIRVRPPRLPRPRPRPRKAPRP  shrunken log2 fold change    -0.124
21  RRIRRRPPRLPRPRPRPSLPPRP  shrunken log2 fold change      0.44
22  RRIRSRPPRLPRPRPRPPACPRP  shrunken log2 fold change     0.185
23  RRIRTRPPRLPRPRPRPLDCPRP  shrunken log2 fold change    -0.294
24  RRIRWRPPRLPRPRPRPCFHPRP  shrunken log2 fold change    -0.247
25  RRIRNRPPRLPRPRPRPHIYPRP  shrunken log2 fold change   -0.0215
26  RRIRFRPPRLPRPRPRPYESPRP  shrunken log2 fold change    0.0128
27  RRIRIRPPRLPRPRPRPWVYPRP  shrunken log2 fold change    -0.341
28  RRIRARPPRLPRPRPRPLGVPRP  shrunken log2 fold change      1.44
29  RRIRVRPPRLPRPRPRPVKYPRP  shrunken log2 fold change     0.228
30  RRIRARPPRLPRPRPRPCCPPRP  shrunken log2 fold change    -0.273
31  RRIRMRPPRLPRPRPRPTFNPRP  shrunken log2 fold change    -0.283
32  RRIRYRPPRLPRPRPRPKYWPRP  shrunken log2 fold change    -0.726
33  RRIRDRPPRLPRPRPRPTEWPRP  shrunken log2 fold change     0.531
34  RRIRRRPPRLPRPRPRPGSVPRP  shrunken log2 fold change     0.299
35  RRIRHRPPRLPRPRPRPAIFPRP  shrunken log2 fold change  -0.00284
36  RRIRERPPRLPRPRPRPRQEPRP  shrunken log2 fold change     0.315
37  RRIRIRPPRLPRPRPRPENQPRP  shrunken log2 fold change    -0.473
38  RRIRLRPPRLPRPRPRPIECPRP  shrunken log2 fold change    0.0614
39  RRIRTRPPRLPRPRPRPFRPPRP  shrunken log2 fold change    0.0775
40  RRIRFRPPRLPRPRPRPTGSPRP  shrunken log2 fold change    -0.103
41  RRIRLRPPRLPRPRPRPGWAPRP  shrunken log2 fold change     0.691
42  RRIRWRPPRLPRPRPRPFMVPRP  shrunken log2 fold change    -0.371
43  RRIRFRPPRLPRPRPRPNVAPRP  shrunken log2 fold change     0.365
44  RRIRSRPPRLPRPRPRPHSKPRP  shrunken log2 fold change    -0.486
45  RRIRTRPPRLPRPRPRPKFRPRP  shrunken log2 fold change    -0.204
46  RRIRCRPPRLPRPRPRPIKWPRP  shrunken log2 fold change    -0.343
47  RRIRYRPPRLPRPRPRPLVGPRP  shrunken log2 fold change    -0.457
48  RRIRDRPPRLPRPRPRPRQPPRP  shrunken log2 fold change     0.252
49  RRIRGRPPRLPRPRPRPRHNPRP  shrunken log2 fold change    0.0863
50  RRIRSRPPRLPRPRPRPDQIPRP  shrunken log2 fold change    0.0424
51  RRIRGRPPRLPRPRPRPVERPRP  shrunken log2 fold change       0.5
52  RRIRMRPPRLPRPRPRPHEDPRP  shrunken log2 fold change     0.465
53  RRIRARPPRLPRPRPRPPHCPRP  shrunken log2 fold change     0.521
54  RRIRPRPPRLPRPRPRPSVIPRP  shrunken log2 fold change  -0.00563
